Target: MMP-14 (Homo sapiens)
Documented IC50 across a set of compounds
# output: bare number, implied unit µM

Use the examples below as a reference point.
# COMPOUND, IC50, µM
data = [
    ("c1cnc2c(c1)ccc1cccnc12 [1,10-Phen, 1,10-phenanthroline, reference compound]", 43.8),
    ("COc1cc(/C=C/C(=O)CC(=O)/C=C/c2ccc(O)c(OC)c2)ccc1O [Compound 1, reference compound]", 29.5),
    ("O=C(/C=C/c1ccc(O)cc1)C(C(=O)/C=C/c1ccc(O)cc1)C(=O)Nc1ccccc1 [Compound 4]", 15.3),
]

Proceed to the following item.
Query :: Input COc1cc(/C=C/C(=O)C(C(=O)/C=C/c2ccc(O)c(OC)c2)C(=O)Nc2ccccc2)ccc1O [Compound 3] , output reported IC50.
Result :: 41.3

Hey, just so you know, these numbers are from patent US20160355465A1.
